target: sLFA-1/ICAM-1 (Homo sapiens, UniProt P05107+P20701, DEL701-769); experiment: sLFA-1/ICAM-1 ELISA; details: sLFA-1 coated plates, 5dICAM-Fc binding, read-out: LFA/ICAM (IC50)
Sequence (P20701 26-1090 limits assumed, stated change not applied): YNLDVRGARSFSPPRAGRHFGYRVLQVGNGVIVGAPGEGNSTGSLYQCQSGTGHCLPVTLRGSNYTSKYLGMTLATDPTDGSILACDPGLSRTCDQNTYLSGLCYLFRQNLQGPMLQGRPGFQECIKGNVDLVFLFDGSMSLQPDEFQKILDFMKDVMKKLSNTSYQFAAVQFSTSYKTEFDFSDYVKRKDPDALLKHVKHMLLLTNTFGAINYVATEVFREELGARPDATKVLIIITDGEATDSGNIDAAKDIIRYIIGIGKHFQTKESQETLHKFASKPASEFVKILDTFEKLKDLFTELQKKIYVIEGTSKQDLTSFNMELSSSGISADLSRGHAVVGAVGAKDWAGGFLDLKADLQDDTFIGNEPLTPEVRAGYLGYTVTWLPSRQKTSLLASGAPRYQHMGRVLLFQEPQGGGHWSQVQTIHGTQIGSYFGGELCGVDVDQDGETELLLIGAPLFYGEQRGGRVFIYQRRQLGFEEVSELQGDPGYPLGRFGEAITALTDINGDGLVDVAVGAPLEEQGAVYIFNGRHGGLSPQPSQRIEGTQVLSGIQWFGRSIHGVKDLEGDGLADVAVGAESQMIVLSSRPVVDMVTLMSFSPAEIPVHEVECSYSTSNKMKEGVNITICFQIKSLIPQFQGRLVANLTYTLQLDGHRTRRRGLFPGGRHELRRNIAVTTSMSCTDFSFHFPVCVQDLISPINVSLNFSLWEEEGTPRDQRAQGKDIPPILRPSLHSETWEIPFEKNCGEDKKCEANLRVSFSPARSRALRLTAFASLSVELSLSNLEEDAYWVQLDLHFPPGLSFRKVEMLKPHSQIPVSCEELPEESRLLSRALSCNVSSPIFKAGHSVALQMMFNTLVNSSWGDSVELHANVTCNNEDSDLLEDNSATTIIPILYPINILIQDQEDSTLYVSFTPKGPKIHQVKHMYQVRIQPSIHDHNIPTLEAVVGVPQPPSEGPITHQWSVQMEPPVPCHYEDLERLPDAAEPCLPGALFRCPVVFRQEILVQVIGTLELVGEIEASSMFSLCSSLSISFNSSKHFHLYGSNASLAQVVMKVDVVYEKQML
Sequence (P05107 23-700 limits assumed, stated change not applied): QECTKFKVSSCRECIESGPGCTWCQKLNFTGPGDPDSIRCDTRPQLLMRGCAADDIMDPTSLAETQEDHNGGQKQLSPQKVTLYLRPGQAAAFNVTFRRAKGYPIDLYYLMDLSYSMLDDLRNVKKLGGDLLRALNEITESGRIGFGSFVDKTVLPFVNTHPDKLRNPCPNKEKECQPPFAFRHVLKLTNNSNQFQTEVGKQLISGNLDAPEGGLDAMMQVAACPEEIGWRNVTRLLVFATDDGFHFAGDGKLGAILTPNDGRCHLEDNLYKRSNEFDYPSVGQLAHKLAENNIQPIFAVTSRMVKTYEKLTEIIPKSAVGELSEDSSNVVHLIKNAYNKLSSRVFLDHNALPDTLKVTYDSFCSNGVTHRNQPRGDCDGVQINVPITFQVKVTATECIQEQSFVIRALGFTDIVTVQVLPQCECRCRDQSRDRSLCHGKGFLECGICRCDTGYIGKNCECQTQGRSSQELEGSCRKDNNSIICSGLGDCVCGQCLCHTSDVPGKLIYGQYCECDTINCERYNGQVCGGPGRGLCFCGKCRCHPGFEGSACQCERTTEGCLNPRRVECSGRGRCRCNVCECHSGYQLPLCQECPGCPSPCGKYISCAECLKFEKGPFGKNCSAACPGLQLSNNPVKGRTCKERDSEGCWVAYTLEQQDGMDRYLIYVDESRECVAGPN
readout type: IC50 (nM)
Write the answer as a number in nM, unit excluded.

Form field IC50, entry CCc1cc(C(=O)NCc2cccc(O)c2)sc1C(=O)N[C@@H](CNC(=O)c1cccs1)C(=O)O : 16

Form field IC50, entry Cc1cc(C(=O)NCc2cccc(O)c2)sc1C(=O)N[C@@H](CNC(=O)c1cccc2[nH]cnc12)C(=O)O : 51

Form field IC50, entry O=C(NC[C@H](NC(=O)c1sc(C(=O)NCc2cccc(O)c2)cc1C(F)(F)F)C(=O)O)c1cccs1 : 31

Form field IC50, entry O=C(Cc1cccc(O)c1)Nc1nc(C(F)(F)F)c(C(=O)N[C@@H](CNC(=O)c2cccs2)C(=O)O)s1 : 30

Entry source: patent US8404859B2
